RUN DESCRIPTION: MRP1 drug-resistance reversers in H69AR cells – cell-based, doxorubicin co-treatment, pilot screen (AID 601)
PARTICULARS: H69AR cells, CellTiter-Glo, 72 h; compound alone cytotoxicity; at 10 µM
Binary label based on viability with cut-off 90%: below gives T, not below gives F.

[[record]]
molecule = "Cn1c(C(=O)Nc2ccc3c(c2)OCO3)cc2c(=O)n(C)c3ccccc3c21"
class = "T"

[[record]]
molecule = "O=C1CCCCCC1C1(O)C(=O)Nc2ccccc21 (stereo unspecified)"
class = "F"


Moving on to the next molecule.
## Input Is viability strictly under 90% for the entry O=C(Cn1ncc2c(=O)oc3ccccc3c21)NCCCN1CCCC1=O ?
## Output F
